subjectOfTest: feline FcRn complex (FcRn-α subunit and β-microglobulin) (feline)
assayExplanation: SPR (Biacore), FcRn on SA chip, pH 7.4
endpointLabel: pKd
Would you please state pKd, meaning minus log10 of the concentration in mol/L, as a bare number?

>>> number("feline IgG1a mutant ID No. 341: S252Y, S428M, S434F, D312A (antibody, part only; not given: Variable domains, not shown: another chain or arm of the molecule; small tags and cut ends) constant: ASTTAPSVFPLAPSCGTTSGATVALACLVLGYFPEPVTVSWNSGALTSGVHTFPAVLQASGLYSLSSMVTVPSSRWLSDTFTCNVAHPPSNTKVDKTVRKTDHPPGPKPCDCPKCPPPEMLGGPSIFIFPPKPKDTLYISRTPEVTCLVVDLGPDDSDVQITWFVDNTQVYTAKTSPREEQFNSTYRVVSVLPILHQAWLKGKEFKCKVNSKSLPSPIERTISKAKGQPHEPQVYVLPPAQEELSRNKVSVTCLIKSFHPPDIAVEWEITGQPEPENNYRTTPPQLDSDGTYFVYSKLSVDRSHWQRGNTYTCSVMHEALHFHHTQKSLTQSPGK")
8.19
>>> number("feline IgG1a mutant ID No. 335: T250Q, S252H (antibody, part only; not given: Variable domains, not shown: another chain or arm of the molecule) constant: ASTTAPSVFPLAPSCGTTSGATVALACLVLGYFPEPVTVSWNSGALTSGVHTFPAVLQASGLYSLSSMVTVPSSRWLSDTFTCNVAHPPSNTKVDKTVRKTDHPPGPKPCDCPKCPPPEMLGGPSIFIFPPKPKDQLHISRTPEVTCLVVDLGPDDSDVQITWFVDNTQVYTAKTSPREEQFNSTYRVVSVLPILHQDWLKGKEFKCKVNSKSLPSPIERTISKAKGQPHEPQVYVLPPAQEELSRNKVSVTCLIKSFHPPDIAVEWEITGQPEPENNYRTTPPQLDSDGTYFVYSKLSVDRSHWQRGNTYTCSVSHEALHSHHTQKSLTQSPGK")
7.43
>>> number("feline IgG1a mutant ID No. 336: S252Y, S428M, S434F, A431K (antibody, part only; not given: Variable domains, not shown: another chain or arm of the molecule) constant: ASTTAPSVFPLAPSCGTTSGATVALACLVLGYFPEPVTVSWNSGALTSGVHTFPAVLQASGLYSLSSMVTVPSSRWLSDTFTCNVAHPPSNTKVDKTVRKTDHPPGPKPCDCPKCPPPEMLGGPSIFIFPPKPKDTLYISRTPEVTCLVVDLGPDDSDVQITWFVDNTQVYTAKTSPREEQFNSTYRVVSVLPILHQDWLKGKEFKCKVNSKSLPSPIERTISKAKGQPHEPQVYVLPPAQEELSRNKVSVTCLIKSFHPPDIAVEWEITGQPEPENNYRTTPPQLDSDGTYFVYSKLSVDRSHWQRGNTYTCSVMHEKLHFHHTQKSLTQSPGK")
8.14

Next item in the queue.
Q. Determine its reported pKd: feline IgG1a mutant ID No. 270: S252F, S434W, Q311W (antibody, part only; not given: variable domains and light chain, not shown: another chain or arm of the molecule) constant: ASTTAPSVFPLAPSCGTTSGATVALACLVLGYFPEPVTVSWNSGALTSGVHTFPAVLQASGLYSLSSMVTVPSSRWLSDTFTCNVAHPPSNTKVDKTVRKTDHPPGPKPCDCPKCPPPEMLGGPSIFIFPPKPKDTLFISRTPEVTCLVVDLGPDDSDVQITWFVDNTQVYTAKTSPREEQFNSTYRVVSVLPILHWDWLKGKEFKCKVNSKSLPSPIERTISKAKGQPHEPQVYVLPPAQEELSRNKVSVTCLIKSFHPPDIAVEWEITGQPEPENNYRTTPPQLDSDGTYFVYSKLSVDRSHWQRGNTYTCSVSHEALHWHHTQKSLTQSPGK
A. 5.58

Measured values drawn from patent US20240400708A1 for this set.
